Quantity Kind: IC50

Task: So what IC50 did `C[C@@H]1OCCC[C@]1(C)Nc1c(Nc2ccnc(C(=O)N(C)C)c2O)c(=O)c1=O` get with Voltage-gated inwardly rectifying potassium channel KCNH2 (Homo sapiens, UniProt Q12809)?
Output: > 100 µM

* * *

- Experiment Description: Metabolic stability in human hepatocytes assessed as apparent intrinsic clearance measured per molar
- Assay type: ADME, cell-based, Hepatocyte
Quantity Kind: CL(app) (µL/min)
Output spec: scalar in µL/min, unitless text.

Task: Would you kindly share the measured CL(app) for `C[C@H]1OCCC[C@@]1(C)Nc1c(Nc2ccnc(C(=O)N(C)C)c2O)c(=O)c1=O` ?
Output: 3.4

Task: Would you kindly share the measured CL(app) for `C[C@@H]1CCC[C@H](C)[C@@H]1Nc1c(Nc2ccnc(C(=O)N(C)C)c2O)c(=O)c1=O` ?
Output: 6.9

Task: Would you kindly share the measured CL(app) for `C[C@@H]1OCCC[C@]1(C)Nc1c(Nc2ccnc(C(=O)N(C)C)c2O)c(=O)c1=O` ?
Output: 2.9

Task: Would you kindly share the measured CL(app) for `C[C@H]1CCCC[C@@]1(C)Nc1c(Nc2ccnc(C(=O)N(C)C)c2O)c(=O)c1=O` ?
Output: 8.3

Task: Would you kindly share the measured CL(app) for `C[C@@H]1CCCC[C@@H]1Nc1c(Nc2ccnc(C(=O)N(C)C)c2O)c(=O)c1=O` ?
Output: 4.7

Task: Would you kindly share the measured CL(app) for `C[C@H]1CCCC[C@H]1Nc1c(Nc2ccnc(C(=O)N(C)C)c2O)c(=O)c1=O` ?
Output: 6.8

Task: Would you kindly share the measured CL(app) for `C[C@@H]1CCCC[C@]1(C)Nc1c(Nc2ccnc(C(=O)N(C)C)c2O)c(=O)c1=O` ?
Output: 9.9

Each recorded value in this set is attributed to ChEMBL document CHEMBL6153144.
